Below: a set of entries, each annotated with reported R3 Selectivity.
Biological target: T1, PACAP-R3 (human, UniProt P41587 24-438)
T1 sequence (looked up): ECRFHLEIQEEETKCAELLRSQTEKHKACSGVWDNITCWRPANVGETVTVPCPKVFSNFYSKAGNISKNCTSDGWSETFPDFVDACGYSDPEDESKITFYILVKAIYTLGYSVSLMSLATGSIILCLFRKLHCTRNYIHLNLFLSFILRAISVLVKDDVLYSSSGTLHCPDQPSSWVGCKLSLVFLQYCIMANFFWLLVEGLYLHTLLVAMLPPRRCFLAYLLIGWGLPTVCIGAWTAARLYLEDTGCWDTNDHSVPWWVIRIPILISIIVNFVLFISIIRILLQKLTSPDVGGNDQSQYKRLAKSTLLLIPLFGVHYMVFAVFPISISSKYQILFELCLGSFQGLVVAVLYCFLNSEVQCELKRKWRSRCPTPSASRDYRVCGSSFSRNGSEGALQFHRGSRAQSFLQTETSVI
Assay: cell-based or functional assay
reported.property: R3 Selectivity

[
  {
    "binder": "HSDAVFTDNYTRLRKQMAGKKYLNSIRNRI [rR3P190]",
    "value.reported": "100 ratio"
  },
  {
    "binder": "HSDAVFTDNYTRLRKQMARKKYLNSIQNRI [rR3P187]",
    "value.reported": "> 80 ratio"
  },
  {
    "binder": "HSDAVFTDNYTRLRKQMASKKYLNSIPNRI [rR3P183]",
    "value.reported": "> 30 ratio"
  },
  {
    "binder": "HSDAVFTDNYTRLRKQMARKKYLNSIKNRI [rR3P177]",
    "value.reported": "70 ratio"
  }
]

Origin of values: patent US6972319B1
